Experiment: inhibition of RSV cytopathic effect in HEp-2, dose response, cell-based, synthesized compounds, set 8 (AID 504820)
Conditions: HEp-2 cells, RSV cytopathic effect inhibition; at 50 µM (top of the series)
CPE inhibition listing for selected molecules.
Give the quantity in %, number only.

Consider the reported CPE inhibition for these molecules:
{"molecule": "Cc1ccc(NC(=O)C2CCCN2S(=O)(=O)c2ccccc2)c(C)c1 (centres undefined)", "recorded metric": "CPE inhibition", "assay value": 1.19}
{"molecule": "COCCCNC(=O)c1ccc(Cn2c(=O)c3ccccc3n(Cc3cc(C)on3)c2=O)cc1", "recorded metric": "CPE inhibition", "assay value": 6.33}
{"molecule": "Cc1cc(C)cc(NC(=O)[C@@H]2CCCN2S(=O)(=O)c2cccc3cccnc23)c1", "recorded metric": "CPE inhibition", "assay value": 33.1}
{"molecule": "O=C([C@@H]1CCCN1S(=O)(=O)c1cccc2cccnc12)N1CCOCC1", "recorded metric": "CPE inhibition", "assay value": 1.71}
{"molecule": "COc1ccc(C)cc1NC(=O)[C@@H]1CCCN1S(=O)(=O)c1cccc2cccnc12", "recorded metric": "CPE inhibition", "assay value": 4.82}

Value of measured CPE inhibition for the entry Cc1ccc(NC(=O)C2CCCN2S(=O)(=O)c2cccc3cnccc23)c(C)c1 (centres undefined) : 3.25

Looking up Cc1ccc(NC(=O)[C@@H]2CCCN2S(=O)(=O)c2cccc3cccnc23)c(C)n1 , I found its CPE inhibition recorded as 4.2

# molecule Cc1ccc(Cn2c(=O)n(Cc3ccc(C(=O)Nc4cc(C)nc5ccccc45)cc3)c(=O)c3ccccc32)cc1 ; its CPE inhibition = 2.83

The recorded CPE inhibition for entry Cc1ccc(Cn2c(=O)n(Cc3ccc(C(=O)Nc4nccs4)cc3)c(=O)c3ccccc32)cc1 equals 2.96

====

Test: inhibition of RSV cytopathic effect in HEp-2, dose response, cell-based, synthesized compounds, set 8 (AID 504820)
Settings: HEp-2 cells, RSV cytopathic effect inhibition; at 50 µM (top of the series)
Reported CPE inhibition values follow for various compounds
Write it as a number; the unit % goes unstated.

Known CPE inhibition results, listed for orientation:
{"compound": "Cc1ccc(C(F)(F)F)cc1NC(=O)[C@@H]1CCCN1S(=O)(=O)c1cccc2cccnc12", "output unit": "%", "CPE inhibition": 15}
{"compound": "Cc1cc(NC(=O)[C@@H]2CCCN2S(=O)(=O)c2cccc3cccnc23)n(C(C)(C)C)n1", "output unit": "%", "CPE inhibition": 33.2}
{"compound": "Cc1ccc(F)cc1NC(=O)[C@@H]1CCCN1S(=O)(=O)c1cccc2cccnc12", "output unit": "%", "CPE inhibition": 10.8}
{"compound": "COCCCNC(=O)c1ccc(Cn2c(=O)c3ccccc3n(C)c2=O)cc1", "output unit": "%", "CPE inhibition": 19.2}
{"compound": "Cc1ccc(NC(=O)[C@@H]2CCCN2S(=O)(=O)c2cccc3cccnc23)cc1", "output unit": "%", "CPE inhibition": 25.5}
{"compound": "Cc1cccc(NC(=O)[C@@H]2CCCN2S(=O)(=O)c2cccc3cccnc23)c1", "output unit": "%", "CPE inhibition": 12.8}
{"compound": "Cc1ccc(NC(=O)CNS(=O)(=O)c2cccc3cccnc23)c(C)c1", "output unit": "%", "CPE inhibition": 4.34}
{"compound": "Cc1ccc(NC(=O)C2CCCN2S(=O)(=O)c2ccc3ncccc3c2)c(C)c1 (stereo not given)", "output unit": "%", "CPE inhibition": 1.75}
{"compound": "Cc1ncccc1NC(=O)[C@@H]1CCCN1S(=O)(=O)c1cccc2cccnc12", "output unit": "%", "CPE inhibition": 3.67}

Switching to the query record.
The compound listed as O=C(Nc1ccccc1)[C@@H]1CCCN1S(=O)(=O)c1cccc2cccnc12 shows CPE inhibition equal to 12.2

====

Experiment: inhibition of RSV cytopathic effect in HEp-2, dose response, cell-based, synthesized compounds, set 8 (AID 504820)
Conditions: HEp-2 cells, RSV cytopathic effect inhibition; at 50 µM (top of the series)
Please map values of CPE inhibition to classes as shown: low bracket (below 3%), middle bracket (3% to below 8%), high bracket (8% or more)

Recorded results for 4 compounds are shown here.
{"compound": "Cc1ccc(NC(=O)C(C)NS(=O)(=O)c2cccc3cccnc23)c(C)c1 (stereo not given)", "category label": "middle bracket"}
{"compound": "Cc1ccc(NC(=O)C2CCCN2S(C)(=O)=O)c(C)c1 (stereo not given)", "category label": "low bracket"}
{"compound": "Cc1ccc(NC(=O)[C@H]2CCCN2S(=O)(=O)c2cccc3cccnc23)c(C)c1", "category label": "high bracket"}
{"compound": "CCCn1c(=O)n(Cc2ccc(C(=O)NCCCOC)cc2)c(=O)c2ccccc21", "category label": "low bracket"}

Kindly state the category for this compound: Cc1cccc(C)c1NC(=O)[C@@H]1CCCN1S(=O)(=O)c1cccc2cccnc12
high bracket

Could you place Cc1ccc(NC(=O)CN(C)S(=O)(=O)c2cccc3cccnc23)c(C)c1 in its proper category? Many thanks.
high bracket

====

Examples of compounds with documented CPE inhibition follow.
Test: inhibition of RSV cytopathic effect in HEp-2, dose response, cell-based, synthesized compounds, set 8 (AID 504820)
Details: HEp-2 cells, RSV cytopathic effect inhibition; at 50 µM (top of the series)
The source made the active and inactive calls. How the calls were made is not given here.

The cases that follow already have their CPE inhibition on record.
{"compound": "CC(C)(C)NC(=O)[C@@H]1CCCN1S(=O)(=O)c1cccc2cccnc12", "CPE inhibition": "1.38% (inactive)"}
{"compound": "Cc1ccc(C(C)C)cc1NC(=O)[C@@H]1CCCN1S(=O)(=O)c1cccc2cccnc12", "CPE inhibition": "7.9% (inactive)"}
{"compound": "Cc1ccc(NC(=O)C2CCCN2S(=O)(=O)c2cccc3ccccc23)c(C)c1 (stereo not given)", "CPE inhibition": "1.6% (inactive)"}

Given item O=C(Nc1ccc(Cl)cc1Cl)[C@@H]1CCCN1S(=O)(=O)c1cccc2cccnc12 , the value recorded as its CPE inhibition is 2.1% (inactive)

# compound Cc1ccc(NC(=O)C2CCCN2S(=O)(=O)c2cccc3cc(C)cnc23)c(C)c1 (stereo not given) ; its CPE inhibition = 11.1% (inactive)

====

Below, each entry is listed alongside its reported CPE inhibition.
Assay: inhibition of RSV cytopathic effect in HEp-2, dose response, cell-based, synthesized compounds, set 8 (AID 504820)
Details: HEp-2 cells, RSV cytopathic effect inhibition; at 50 µM (top of the series)
Express it in %; write the number only.

{"cpd smiles": "COCCCNC(=O)c1ccc(Cn2c(=O)c3ccc(Br)cc3n(Cc3ccc(C)cc3)c2=O)cc1", "CPE inhibition, %": 1.9}
{"cpd smiles": "Cc1ccc(C(C)(C)C)cc1NC(=O)[C@@H]1CCCN1S(=O)(=O)c1cccc2cccnc12", "CPE inhibition, %": 2.81}
{"cpd smiles": "Cc1ccc(Cl)c(NC(=O)[C@@H]2CCCN2S(=O)(=O)c2cccc3cccnc23)c1", "CPE inhibition, %": 8.49}

API: the following record is the query input.
Kindly note the recorded CPE inhibition for Cc1ccc(NC(=O)[C@@H]2CCCN2S(=O)(=O)c2cccc3nonc23)c(C)c1 , which is 6.16
